Biological target: Fes (UniProt P07332)
Sequence (P07332 whole entry, looked up): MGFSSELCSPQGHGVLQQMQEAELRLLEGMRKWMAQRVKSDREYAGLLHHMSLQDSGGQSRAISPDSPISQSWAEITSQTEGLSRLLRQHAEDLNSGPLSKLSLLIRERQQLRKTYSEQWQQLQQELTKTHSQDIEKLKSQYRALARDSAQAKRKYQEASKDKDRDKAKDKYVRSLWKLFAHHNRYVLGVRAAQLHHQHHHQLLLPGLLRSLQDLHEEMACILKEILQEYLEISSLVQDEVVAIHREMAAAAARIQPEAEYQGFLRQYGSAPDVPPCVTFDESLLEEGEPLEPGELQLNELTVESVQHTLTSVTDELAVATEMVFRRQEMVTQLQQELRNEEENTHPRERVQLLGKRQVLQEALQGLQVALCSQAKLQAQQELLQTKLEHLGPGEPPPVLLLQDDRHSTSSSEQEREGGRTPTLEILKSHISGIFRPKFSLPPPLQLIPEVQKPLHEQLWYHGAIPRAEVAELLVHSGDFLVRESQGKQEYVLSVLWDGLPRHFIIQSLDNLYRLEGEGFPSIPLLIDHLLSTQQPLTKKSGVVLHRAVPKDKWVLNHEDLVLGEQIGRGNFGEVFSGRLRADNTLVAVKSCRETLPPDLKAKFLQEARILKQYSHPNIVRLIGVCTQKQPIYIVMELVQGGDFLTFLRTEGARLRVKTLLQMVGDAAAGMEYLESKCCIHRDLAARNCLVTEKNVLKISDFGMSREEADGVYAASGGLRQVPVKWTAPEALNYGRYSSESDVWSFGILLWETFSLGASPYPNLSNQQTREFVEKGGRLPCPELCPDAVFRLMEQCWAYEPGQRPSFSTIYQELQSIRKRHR
Assay: phosphorylation enrichment, bacterial display (enrichment ratio); higher = better substrate or ligand; peptides without Tyr show the background
The label depends only on phosphorylation enrichment: y if it is at least 0.9, n if it is smaller.

biopolymer sequence	assigned class
TGTQLYGRFGS [ITGA2B_Y384]	n
PLQKTYNYNVL [SLC4A1_Y553]	y
TEALFYTDDTA [ADPRS_Y75_YF]	y
WHHTFYNEPRV [ACTA1_Y93_L96P]	y

Moving on to the next sequence.
(Q) Reported phosphorylation enrichment reaches at least 0.9 for ATHSRYRLNDF [CLDN14_Y233_G232R_YF] ?
(A) n

----------
Biological target: Hck (UniProt P08631)
Sequence (P08631 whole entry, looked up): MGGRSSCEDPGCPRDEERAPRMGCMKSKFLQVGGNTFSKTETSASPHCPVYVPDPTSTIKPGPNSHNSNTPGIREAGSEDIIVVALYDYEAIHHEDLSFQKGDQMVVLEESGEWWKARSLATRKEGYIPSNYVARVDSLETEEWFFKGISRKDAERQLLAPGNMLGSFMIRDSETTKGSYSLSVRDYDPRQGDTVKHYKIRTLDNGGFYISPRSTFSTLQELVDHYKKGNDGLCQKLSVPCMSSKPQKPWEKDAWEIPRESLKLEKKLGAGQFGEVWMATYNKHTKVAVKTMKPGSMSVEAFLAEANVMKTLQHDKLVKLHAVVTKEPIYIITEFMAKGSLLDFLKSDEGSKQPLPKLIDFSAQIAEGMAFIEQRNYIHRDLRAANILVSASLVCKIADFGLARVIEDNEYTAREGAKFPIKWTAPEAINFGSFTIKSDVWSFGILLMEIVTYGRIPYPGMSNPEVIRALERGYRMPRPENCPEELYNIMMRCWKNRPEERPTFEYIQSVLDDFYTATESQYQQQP
Experiment: phosphorylation enrichment, bacterial display (enrichment ratio); higher = better substrate or ligand; peptides without Tyr show the background
The label depends only on phosphorylation enrichment: y if it is at least 0.6, n if it is smaller.

Record excerpt, results attached:
biopolymer sequence	assigned class
EMTRNYIIFIE [BCO2_Y294_G289E]	n
SSMIDYNLLEK [MYOC_Y479_P481L]	n
QRRYVYYYSYL [PTEN_Y176]	y
CEHFSYFGMKA [SLC15A2_Y60_R57H_YF]	n
AKKIKYFEGVS [PRKDC_Y682]	n

Moving on to the next sequence.
(Q) Reported phosphorylation enrichment reaches at least 0.6 for ISDNAYQYMLT [MYH7_Y162] ?
(A) n

----------
Molecular target: Jak2 (UniProt O60674)
Sequence (O60674 whole entry, looked up): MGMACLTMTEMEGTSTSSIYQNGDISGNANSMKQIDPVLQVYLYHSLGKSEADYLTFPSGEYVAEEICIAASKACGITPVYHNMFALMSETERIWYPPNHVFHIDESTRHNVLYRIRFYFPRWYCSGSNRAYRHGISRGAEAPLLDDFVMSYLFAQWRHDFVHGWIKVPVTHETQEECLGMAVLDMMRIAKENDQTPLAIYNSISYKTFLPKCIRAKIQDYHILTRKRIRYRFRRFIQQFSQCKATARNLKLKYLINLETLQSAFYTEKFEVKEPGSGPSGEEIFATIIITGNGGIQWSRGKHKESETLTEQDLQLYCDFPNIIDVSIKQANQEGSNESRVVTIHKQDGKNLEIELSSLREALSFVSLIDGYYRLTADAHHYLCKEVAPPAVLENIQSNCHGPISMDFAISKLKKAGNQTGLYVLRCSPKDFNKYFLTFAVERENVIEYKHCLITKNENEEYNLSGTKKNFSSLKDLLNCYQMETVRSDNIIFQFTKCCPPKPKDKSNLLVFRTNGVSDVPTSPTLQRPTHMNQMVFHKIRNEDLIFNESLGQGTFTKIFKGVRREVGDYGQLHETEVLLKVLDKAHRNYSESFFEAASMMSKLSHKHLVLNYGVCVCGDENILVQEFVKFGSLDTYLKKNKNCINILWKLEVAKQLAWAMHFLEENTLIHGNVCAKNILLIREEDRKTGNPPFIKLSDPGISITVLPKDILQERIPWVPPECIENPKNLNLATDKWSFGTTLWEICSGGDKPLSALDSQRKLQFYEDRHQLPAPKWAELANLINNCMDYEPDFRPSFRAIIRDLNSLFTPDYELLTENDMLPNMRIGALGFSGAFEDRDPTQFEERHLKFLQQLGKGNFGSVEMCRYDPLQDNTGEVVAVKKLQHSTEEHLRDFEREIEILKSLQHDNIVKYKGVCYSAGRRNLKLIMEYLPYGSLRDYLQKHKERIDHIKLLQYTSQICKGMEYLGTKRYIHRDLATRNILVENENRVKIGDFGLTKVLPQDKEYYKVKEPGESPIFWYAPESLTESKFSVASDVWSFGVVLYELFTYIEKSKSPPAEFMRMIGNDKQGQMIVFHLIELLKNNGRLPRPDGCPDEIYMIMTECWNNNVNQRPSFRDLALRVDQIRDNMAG
Test: phosphorylation enrichment, bacterial display (enrichment ratio); higher = better substrate or ligand; peptides without Tyr show the background
measurement type: phosphorylation enrichment

Measured phosphorylation enrichment of THPFPYLSLEI [MLH1_Y293_L292P] : 1.09

Measured phosphorylation enrichment of VPEANYTSDEE [STK33_Y439_D436E] : 1.99

Measured phosphorylation enrichment of HILQLYRCREE [ALPK3_Y342_T338I] : 0.709

Measured phosphorylation enrichment of RRQDLYSARDL [SART1_Y249] : 0.663

Measured phosphorylation enrichment of KMKGDYFRFLA [YWHAG_Y130_YF] : 4.54

Measured phosphorylation enrichment of SRWKLYPRMLR [HAO1_Y50] : 0.873

Measured phosphorylation enrichment of LKSEMYQKLFK [RGS13_Y146_L150F] : 1.77

Measured phosphorylation enrichment of LRGVIYVILRK [PMP22_Y153_S149R] : 1.15

Measured phosphorylation enrichment of DFTEAYNSKIK [CLK1_Y305_P307S_YF] : 0.908

Measured phosphorylation enrichment of TCRPPYYHRNC [HGD_Y333_F329C] : 0.162

Measured phosphorylation enrichment of HSFQCYGQNEA [ENTPD3_Y262_R264Q] : 1.21

Measured phosphorylation enrichment of VRVQLYDPDYM [CYP4A22_Y100] : 1.15

Measured phosphorylation enrichment of APSHAYHRGVL [ANO1_Y981_G983R] : 0.534

Measured phosphorylation enrichment of IQTDGDRAPEA [UHMK1_Y197_Y197D] : 0.96

----------
Target: FGFR3 (UniProt P22607)
Sequence (P22607 whole entry, looked up): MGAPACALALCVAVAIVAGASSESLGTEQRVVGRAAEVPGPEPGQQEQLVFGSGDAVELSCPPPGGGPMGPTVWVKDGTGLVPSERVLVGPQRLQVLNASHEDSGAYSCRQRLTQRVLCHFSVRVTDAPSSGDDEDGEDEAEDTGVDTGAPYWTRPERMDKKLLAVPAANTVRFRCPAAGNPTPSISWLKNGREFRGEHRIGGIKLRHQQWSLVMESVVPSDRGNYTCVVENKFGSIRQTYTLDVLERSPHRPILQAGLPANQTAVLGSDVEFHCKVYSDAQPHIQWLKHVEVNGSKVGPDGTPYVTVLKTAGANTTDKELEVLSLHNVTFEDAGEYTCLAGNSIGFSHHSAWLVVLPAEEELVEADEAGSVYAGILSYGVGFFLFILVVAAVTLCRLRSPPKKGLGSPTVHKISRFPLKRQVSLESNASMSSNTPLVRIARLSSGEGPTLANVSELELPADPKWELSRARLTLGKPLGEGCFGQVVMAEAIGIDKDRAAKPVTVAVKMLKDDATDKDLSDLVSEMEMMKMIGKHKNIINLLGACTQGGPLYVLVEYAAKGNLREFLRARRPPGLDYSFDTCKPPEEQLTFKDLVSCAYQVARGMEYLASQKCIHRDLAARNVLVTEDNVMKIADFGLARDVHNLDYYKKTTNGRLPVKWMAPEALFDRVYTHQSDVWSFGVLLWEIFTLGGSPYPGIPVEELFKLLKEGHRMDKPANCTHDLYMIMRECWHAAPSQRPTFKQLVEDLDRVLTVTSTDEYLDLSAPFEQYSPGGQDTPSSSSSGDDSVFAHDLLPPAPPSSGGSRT
Test: phosphorylation enrichment, bacterial display (enrichment ratio); higher = better substrate or ligand; peptides without Tyr show the background
The label depends only on phosphorylation enrichment: true if it is at least 0.7, false if it is smaller.

biopolymer sequence	assigned class
FAKTQYPDVFA [CRX_Y63_YF]	false
GRSTCYWPRPR [GAGE12J_Y10_Y9C]	false
LAIEWYVVVCK [RHO_Y136_R135W]	true
QDIMAYRSREV [BCL6_Y157_G159S]	false
ERPGVYTNVVE [F11_Y608]	false

(Q) Reported phosphorylation enrichment reaches at least 0.7 for LIDGFYRLTAD [JAK2_Y373_YF] ?
(A) true

(Q) Reported phosphorylation enrichment reaches at least 0.7 for NVTGHYIPPFH [PPA2_Y59_S61P] ?
(A) false

(Q) Reported phosphorylation enrichment reaches at least 0.7 for WQQQSYLDFGI [CTNNB1_Y30_S33F] ?
(A) true

(Q) Reported phosphorylation enrichment reaches at least 0.7 for MSIWPYLQKID [MFSD8_Y63] ?
(A) false

(Q) Reported phosphorylation enrichment reaches at least 0.7 for GPGSGYTNIMR [PKLR_Y564_R559G] ?
(A) false

(Q) Reported phosphorylation enrichment reaches at least 0.7 for GADAIYDHINE [UQCR10_Y44] ?
(A) false

(Q) Reported phosphorylation enrichment reaches at least 0.7 for HNLDFYKQTTN [FGFR3_Y648_K650Q_YF] ?
(A) false

(Q) Reported phosphorylation enrichment reaches at least 0.7 for QMEKICTQQIQ [CCNB1IP1_Y125_Y125C] ?
(A) true

(Q) Reported phosphorylation enrichment reaches at least 0.7 for TDIVAYSGWVQ [SPTBN2_Y477_R480W] ?
(A) true

(Q) Reported phosphorylation enrichment reaches at least 0.7 for VRRVGYVSGWG [HP_Y280_G276R] ?
(A) false

----------
Molecular target: FGFR3 (UniProt P22607)
Assay: phosphorylation enrichment, bacterial display (enrichment ratio); higher = better substrate or ligand; peptides without Tyr show the background
Note: every record was labeled by where its phosphorylation enrichment sits among small value: < 0.6; mid value: ≥ 0.6 and < 0.9; large value: ≥ 0.9

Record excerpt, results attached:
biopolymer sequence	assigned class
VVSMNYRVGAL [BCHE_Y174]	small value
CTTIHDNYMCN [TP53_Y234_Y234D]	small value
YRQNVYIPGSN [PCDHGA1_Y895]	small value

(Q) Given HKLSSYEYDFE [BTK_Y40_Y39S] , name the class its phosphorylation enrichment places it in.
(A) large value

(Q) Given GNLLIYTDFGK [HGD_Y166_E168D] , name the class its phosphorylation enrichment places it in.
(A) mid value

(Q) Given PPSGEYFGQCG [TRIP6_Y275] , name the class its phosphorylation enrichment places it in.
(A) large value

----------
Test system: c-Abl (mouse)
Experiment: phosphorylation enrichment, bacterial display (enrichment ratio); higher = better substrate or ligand; peptides without Tyr show the background
The label depends only on phosphorylation enrichment: yes (1) if it is at least 0.6, no (0) if it is smaller.

Record excerpt, results attached:
biopolymer sequence	assigned class
ELETLYKKAVK [CC2D2A_Y381]	no (0)
VPLATYMQIFK [RPL21_Y30_R32Q_YF]	no (0)
LDAFIYDAALL [GRIN2A_Y730_V734L]	yes (1)
FNNPAYYVLEG [INPPL1_Y986]	yes (1)
CRAVKYLQMVD [AVPR2_Y117_G122D]	no (0)
WQQQSYLDSGS [CTNNB1_Y30_I35S]	no (0)
LKLWDYSRGRC [WDR5B_Y239]	yes (1)
THPFLYLSLEI [MLH1_Y293]	yes (1)

(Q) Reported phosphorylation enrichment reaches at least 0.6 for PEPHIYAVADV [MYO9A_Y216_L211P] ?
(A) yes (1)

(Q) Reported phosphorylation enrichment reaches at least 0.6 for EKIANYKEGTY [CLRN1_Y171] ?
(A) yes (1)

(Q) Reported phosphorylation enrichment reaches at least 0.6 for KASGKYYAMKI [AKT3_Y173] ?
(A) no (0)

(Q) Reported phosphorylation enrichment reaches at least 0.6 for QRRYVYYYSYL [PTEN_Y176] ?
(A) yes (1)

(Q) Reported phosphorylation enrichment reaches at least 0.6 for RGSQQYRALPV [TUBB8_Y281_T285P] ?
(A) yes (1)

(Q) Reported phosphorylation enrichment reaches at least 0.6 for NREGVYTDFAP [TGFBI_Y537_V539D] ?
(A) yes (1)

(Q) Reported phosphorylation enrichment reaches at least 0.6 for NDTAGYFVIGG [SEL1L3_Y399_I401V] ?
(A) yes (1)

(Q) Reported phosphorylation enrichment reaches at least 0.6 for TEALFYTDDTA [ADPRS_Y75_YF] ?
(A) yes (1)

(Q) Reported phosphorylation enrichment reaches at least 0.6 for TKGNEYVFRVA ?
(A) no (0)

----------
Molecular target: c-Src SH2;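 further: peptide library displayed on the E. coli surface as eCPX fusions, selected cells deep-sequenced, score is each peptide's frequency after selection divided by its frequency in the input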
Assay: SH2 binding enrichment of the phosphorylated peptide, bacterial display (enrichment ratio); higher = better substrate or ligand; peptides without Tyr show the background
The label depends only on SH2 binding enrichment: Condition met if it is at least 0.5, Condition not met if it is smaller.

biopolymer sequence	experimental target	assigned class
SSLEDYVRETN [GIMAP6_Y176_G171S]	c-Src SH2	Condition met
IDSTPYRQWFE [RPS8_Y109_YF]	c-Src SH2	Condition not met
APTSGYQEFVH [IL4R_Y575]	c-Src SH2	Condition met
ALCHYYKLNII [ETV6_Y402_R399C]	c-Src SH2	Condition met
PTTKTYLPHFD [HBA1_Y43_F44L]	c-Src SH2	Condition not met

(Q) Reported SH2 binding enrichment reaches at least 0.5 for DVCKNYTEAKD [ALB_Y343_A344T] ?
(A) Condition met

(Q) Reported SH2 binding enrichment reaches at least 0.5 for ACEVLYNIAFM [NCF2_Y125] ?
(A) Condition not met

(Q) Reported SH2 binding enrichment reaches at least 0.5 for LINLKYSVEEE [PCDH19_Y27] ?
(A) Condition met

(Q) Reported SH2 binding enrichment reaches at least 0.5 for SVETPYGSVTF [NDRG2_Y47] ?
(A) Condition not met

(Q) Reported SH2 binding enrichment reaches at least 0.5 for NTVDYYDLYGG [PTPN11_Y63_G60V] ?
(A) Condition met

(Q) Reported SH2 binding enrichment reaches at least 0.5 for MSFDRYMAVCH [OR2A5_Y123_I126V_YF] ?
(A) Condition met

(Q) Reported SH2 binding enrichment reaches at least 0.5 for SGPRRYTVAAL [TTR_Y125_I127V] ?
(A) Condition met

(Q) Reported SH2 binding enrichment reaches at least 0.5 for TFWKKYCTFWK [CCDC70_Y125_R126C] ?
(A) Condition met

(Q) Reported SH2 binding enrichment reaches at least 0.5 for RAFSWYQHQRA [NDST1_Y714_YF] ?
(A) Condition met

(Q) Reported SH2 binding enrichment reaches at least 0.5 for WCSNDYLGMSQ [ALAS2_Y199_R204Q] ?
(A) Condition met

(Q) Reported SH2 binding enrichment reaches at least 0.5 for QELRRYLESGV [MICA_Y194_K196E] ?
(A) Condition not met

(Q) Reported SH2 binding enrichment reaches at least 0.5 for YPKARYRWLVL [APTX_Y214_H215R] ?
(A) Condition met

(Q) Reported SH2 binding enrichment reaches at least 0.5 for LECEWYKNGVK [TTN_Y2112_P2107L] ?
(A) Condition not met

(Q) Reported SH2 binding enrichment reaches at least 0.5 for KWRGQYDVAIE [BTK_Y425_K430E] ?
(A) Condition met

(Q) Reported SH2 binding enrichment reaches at least 0.5 for VVSMNYRVGAL [BCHE_Y174] ?
(A) Condition not met

(Q) Reported SH2 binding enrichment reaches at least 0.5 for YKGKKYKPLDL [RPL35_Y78] ?
(A) Condition not met

(Q) Reported SH2 binding enrichment reaches at least 0.5 for QSLEPYTKQQL [STAT3_Y640_V637L] ?
(A) Condition not met

(Q) Reported SH2 binding enrichment reaches at least 0.5 for QGQHWYSSSDT [CASP10_Y9_K14T] ?
(A) Condition met
